- Assay protocol: Cmax in C57BL/6 mouse plasma at 1 mg/kg, sc by LC-MS analysis
- Format: ADME, organism-based
- Set-up: dose 1 mg/kg, route subcutaneous
Numbered stars: 1 amine (or outer) side, 2 acyl side, 3 side chain; on linkers, the order of the positions; unused ones are H or OH. Bridge positions count the residues as written; N and C are the ends. Peptide text beside a SMILES is read from it. * marks the point of attachment. X1 = O=C(O)CCCCCCCCCCCCCCCCC(=O)N[C@@H](CCCCNC(=O)CCOCCOCCNC(=O)CCOCCOCCNC(=O)C*)C(=O)O; X2 = O=C(CCC[*:2])[*:1]
Property name: Cmax
State the value with its unit after it.

query: # get_value(readout='Cmax', item= CC[C@H](C)[C@@H]1NC(=O)[C@H](Cc2ccc(O)cc2)NC(=O)CCCSC[C@@H](C(=O)NCC(=O)N[C@@H](CSCC(=O)NCCOCCOCCC(=O)NCCOCCOCCC(=O)NCCCC[C@H](NC(=O)CCCCCCCCCCCCCCCCC(=O)O)C(=O)O)C(=O)NCC(N)=O)NC(=O)[C@H](CC(N)=O)NC(=O)[C@H](CCC(N)=O)NC1=O (YIQNCGC(X1)G-NH2; linker N-5 via X2) )
result: 9110 ng/mL

* * *

- Assayed system: Oxytocin receptor (Homo sapiens)
- Sequence (P30559 whole entry): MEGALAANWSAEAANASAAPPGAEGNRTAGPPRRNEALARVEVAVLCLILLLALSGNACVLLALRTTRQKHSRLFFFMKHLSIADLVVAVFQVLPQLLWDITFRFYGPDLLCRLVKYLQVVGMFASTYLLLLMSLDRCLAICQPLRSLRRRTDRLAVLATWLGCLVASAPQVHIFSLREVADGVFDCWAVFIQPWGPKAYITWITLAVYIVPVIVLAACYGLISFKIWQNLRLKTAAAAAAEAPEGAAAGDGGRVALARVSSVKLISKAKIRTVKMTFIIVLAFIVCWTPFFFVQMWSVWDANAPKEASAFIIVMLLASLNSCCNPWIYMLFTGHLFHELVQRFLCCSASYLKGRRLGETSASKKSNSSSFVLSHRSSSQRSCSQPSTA
- Assay protocol: Agonist activity at recombinant human Gi/Go-coupled OTR expressed in CHOK1 cells assessed as induction of beta-arrestin recruitment measured after 90 mins in presence of 10% FBS by pathhunter assay
- Type: cell-based
Numbered stars: 1 amine (or outer) side, 2 acyl side, 3 side chain; on linkers, the order of the positions; unused ones are H or OH. Bridge positions count the residues as written; N and C are the ends. Square brackets hold non-standard residues; d marks the D form. Peptide text beside a SMILES is read from it. * marks the point of attachment. X1 = O=C(O)CCCCCCCCCCCCCCCCC(=O)N[C@@H](CCCCNC(=O)CCOCCOCCNC(=O)CCOCCOCCNC(=O)C*)C(=O)O; X3 = CCCCCCCCCCCCCC(=O)NCCOCCOCCNC(=O)C*; X2 = O=C(CCC[*:2])[*:1]; Sar = CNCC(=O)O
Property name: EC50 (nM)
Numbers only, in nM.

Known EC50 results, listed for orientation:
CCCCCCCCCCCCCC(=O)NCCOCCOCCNC(=O)CSC[C@H](NC(=O)CNC(=O)[C@@H]1CSCCCC(=O)N[C@@H](Cc2ccc(O)cc2)C(=O)N[C@@H]([C@@H](C)CC)C(=O)N[C@@H](CCC(N)=O)C(=O)N[C@@H](CC(N)=O)C(=O)N1)C(=O)N(C)CC(N)=O (YIQNCGC(X3)[Sar]-NH2; linker N-5 via X2); 56.9
CCCCCCCCCCCCCC(=O)NCCOCCOCCNC(=O)CSC[C@H](NC(=O)CNC(=O)[C@@H]1CSCCCC(=O)N[C@@H](Cc2ccc(O)cc2)C(=O)N[C@@H]([C@@H](C)CC)C(=O)N[C@@H](CCC(N)=O)C(=O)N[C@@H](CC(N)=O)C(=O)N1)C(=O)NCC(N)=O (YIQNCGC(X3)G-NH2; linker N-5 via X2); 18.9

Consider now this further molecule.
query: May I ask what EC50 has been recorded for CC[C@H](C)[C@@H]1NC(=O)[C@H](Cc2ccc(O)cc2)NC(=O)CCCSC[C@@H](C(=O)NCC(=O)N[C@@H](CSCC(=O)NCCOCCOCCC(=O)NCCOCCOCCC(=O)NCCCC[C@H](NC(=O)CCCCCCCCCCCCCCCCC(=O)O)C(=O)O)C(=O)N(C)CC(N)=O)NC(=O)[C@H](CC(N)=O)NC(=O)[C@H](CCC(N)=O)NC1=O (YIQNCGC(X1)[Sar]-NH2; linker N-5 via X2) ?
result: 464

* * *

- Assayed system: UniProt P30559
- Assay protocol: Agonist activity at recombinant human Gi/Go-coupled OTR expressed in CHOK1 cells assessed as induction of beta-arrestin recruitment measured after 90 mins in absence of 10% FBS by pathhunter assay
- Assay type: cell-based
Numbered stars: 1 amine (or outer) side, 2 acyl side, 3 side chain; on linkers, the order of the positions; unused ones are H or OH. Bridge positions count the residues as written; N and C are the ends. Square brackets hold non-standard residues; d marks the D form. Peptide text beside a SMILES is read from it. * marks the point of attachment. X1 = O=C(O)CCCCCCCCCCCCCCCCC(=O)N[C@@H](CCCCNC(=O)CCOCCOCCNC(=O)CCOCCOCCNC(=O)C*)C(=O)O; X3 = CCCCCCCCCCCCCC(=O)NCCOCCOCCNC(=O)C*; X2 = O=C(CCC[*:2])[*:1]; Sar = CNCC(=O)O
Record form. Attribute: pEC50. Fill in for each entry.
Answers are plain numbers, as −log10 of the molar value.

Need pEC50 for each of these compounds.
1. CC[C@H](C)[C@@H]1NC(=O)[C@H](Cc2ccc(O)cc2)NC(=O)CCCSC[C@@H](C(=O)NCC(=O)N[C@@H](CSCC(=O)NCCOCCOCCC(=O)NCCOCCOCCC(=O)NCCCC[C@H](NC(=O)CCCCCCCCCCCCCCCCC(=O)O)C(=O)O)C(=O)NCC(N)=O)NC(=O)[C@H](CC(N)=O)NC(=O)[C@H](CCC(N)=O)NC1=O (YIQNCGC(X1)G-NH2; linker N-5 via X2)
2. CCCCCCCCCCCCCC(=O)NCCOCCOCCNC(=O)CSC[C@H](NC(=O)CNC(=O)[C@@H]1CSCCCC(=O)N[C@@H](Cc2ccc(O)cc2)C(=O)N[C@@H]([C@@H](C)CC)C(=O)N[C@@H](CCC(N)=O)C(=O)N[C@@H](CC(N)=O)C(=O)N1)C(=O)N(C)CC(N)=O (YIQNCGC(X3)[Sar]-NH2; linker N-5 via X2)

result:
[8.59, 7.98]

* * *

- Assay protocol: Ratio of drug level in brain to plasma in C57BL/6 mouse at 1 mg/kg, sc measured after 7 hrs by LC-MS analysis
- Type: ADME, organism-based
- Settings: read-out: BPR
Numbered stars: 1 amine (or outer) side, 2 acyl side, 3 side chain; on linkers, the order of the positions; unused ones are H or OH. Bridge positions count the residues as written; N and C are the ends. Peptide text beside a SMILES is read from it. * marks the point of attachment. X1 = O=C(O)CCCCCCCCCCCCCCCCC(=O)N[C@@H](CCCCNC(=O)CCOCCOCCNC(=O)CCOCCOCCNC(=O)C*)C(=O)O; X2 = O=C(CCC[*:2])[*:1]
Property name: Kp at 7 h
Give bare numbers.

query: // lookup Kp at 7 h for CC[C@H](C)[C@@H]1NC(=O)[C@H](Cc2ccc(O)cc2)NC(=O)CCCSC[C@@H](C(=O)NCC(=O)N[C@@H](CSCC(=O)NCCOCCOCCC(=O)NCCOCCOCCC(=O)NCCCC[C@H](NC(=O)CCCCCCCCCCCCCCCCC(=O)O)C(=O)O)C(=O)NCC(N)=O)NC(=O)[C@H](CC(N)=O)NC(=O)[C@H](CCC(N)=O)NC1=O (YIQNCGC(X1)G-NH2; linker N-5 via X2)
result: 0.005

* * *

Please go through the items and note down their EC50.
- Assayed system: Oxytocin receptor (Homo sapiens, UniProt P30559)
- Assay protocol: Agonist activity at recombinant human Gi/Go-coupled OTR expressed in CHOK1 cells assessed as induction of beta-arrestin recruitment measured after 90 mins in presence of 10% FBS by pathhunter assay
- Type: cell-based
Numbered stars: 1 amine (or outer) side, 2 acyl side, 3 side chain; on linkers, the order of the positions; unused ones are H or OH. Bridge positions count the residues as written; N and C are the ends. Square brackets hold non-standard residues; d marks the D form. Peptide text beside a SMILES is read from it. * marks the point of attachment. X1 = O=C(O)CCCCCCCCCCCCCCCCC(=O)N[C@@H](CCCCNC(=O)CCOCCOCCNC(=O)CCOCCOCCNC(=O)C*)C(=O)O; X4 = O=C(O)CCCCCCCCCCCCCCCCC(=O)NCCOCCOCCOCCNC(=O)C*; X3 = CCCCCCCCCCCCCC(=O)NCCOCCOCCNC(=O)C*; X2 = O=C(CCC[*:2])[*:1]; Sar = CNCC(=O)O; Cam = NC(=O)C*
Give bare numbers, in nM.

CCCCCCCCCCCCCC(=O)NCCOCCOCCNC(=O)CSC[C@H](NC(=O)[C@@H]1CCCN1C(=O)[C@@H]1CSCCCC(=O)N[C@@H](Cc2ccc(O)cc2)C(=O)N[C@@H]([C@@H](C)CC)C(=O)N[C@@H](CCC(N)=O)C(=O)N[C@@H](CC(N)=O)C(=O)N1)C(=O)NCC(N)=O (YIQNCPC(X3)G-NH2; linker N-5 via X2); 5.28

Below are 5 compounds. Give each one its EC50.
1. CC[C@H](C)[C@@H]1NC(=O)[C@H](Cc2ccc(O)cc2)NC(=O)CCCSC[C@@H](C(=O)NCC(=O)N[C@@H](CSCC(=O)NCCOCCOCCOCCNC(=O)CCCCCCCCCCCCCCCCC(=O)O)C(=O)NCC(N)=O)NC(=O)[C@H](CC(N)=O)NC(=O)[C@H](CCC(N)=O)NC1=O (YIQNCGC(X4)G-NH2; linker N-5 via X2)
2. CC[C@H](C)[C@@H]1NC(=O)[C@H](Cc2ccc(O)cc2)NC(=O)CCCSC[C@@H](C(=O)NCC(=O)N[C@@H](CSCC(=O)NCCOCCOCCOCCNC(=O)CCCCCCCCCCCCCCCCC(=O)O)C(=O)N(C)CC(N)=O)NC(=O)[C@H](CC(N)=O)NC(=O)[C@H](CCC(N)=O)NC1=O (YIQNCGC(X4)[Sar]-NH2; linker N-5 via X2)
3. CC[C@H](C)[C@@H]1NC(=O)[C@H](Cc2ccc(O)cc2)NC(=O)CCCSC[C@@H](C(=O)NCC(=O)N[C@@H](CSCC(=O)NCCOCCOCCC(=O)NCCOCCOCCC(=O)NCCCC[C@H](NC(=O)CCCCCCCCCCCCCCCCC(=O)O)C(=O)O)C(=O)NCC(N)=O)NC(=O)[C@H](CC(N)=O)NC(=O)[C@H](CCC(N)=O)NC1=O (YIQNCGC(X1)G-NH2; linker N-5 via X2)
4. CC[C@H](C)[C@@H]1NC(=O)[C@H](Cc2ccc(O)cc2)NC(=O)CCCSC[C@@H](C(=O)N2CCC[C@H]2C(=O)N[C@@H](CC(C)C)C(=O)NCC(N)=O)NC(=O)[C@H](CC(N)=O)NC(=O)[C@H](CSCC(N)=O)NC1=O (YIC(Cam)NCPLG-NH2; linker N-5 via X2)
5. CC[C@H](C)[C@@H]1NC(=O)[C@H](Cc2ccc(O)cc2)NC(=O)CCCSC[C@@H](C(=O)N2CCC[C@H]2C(=O)N[C@@H](CSCC(N)=O)C(=O)NCC(N)=O)NC(=O)[C@H](CC(N)=O)NC(=O)[C@H](CCC(N)=O)NC1=O (YIQNCPC(Cam)G-NH2; linker N-5 via X2)

result:
1. 173
2. 831
3. 193
4. 14.4
5. 4.8
